assayedTarget: Lysine-specific demethylase 4A (Homo sapiens)
Sequence (O75164 whole entry): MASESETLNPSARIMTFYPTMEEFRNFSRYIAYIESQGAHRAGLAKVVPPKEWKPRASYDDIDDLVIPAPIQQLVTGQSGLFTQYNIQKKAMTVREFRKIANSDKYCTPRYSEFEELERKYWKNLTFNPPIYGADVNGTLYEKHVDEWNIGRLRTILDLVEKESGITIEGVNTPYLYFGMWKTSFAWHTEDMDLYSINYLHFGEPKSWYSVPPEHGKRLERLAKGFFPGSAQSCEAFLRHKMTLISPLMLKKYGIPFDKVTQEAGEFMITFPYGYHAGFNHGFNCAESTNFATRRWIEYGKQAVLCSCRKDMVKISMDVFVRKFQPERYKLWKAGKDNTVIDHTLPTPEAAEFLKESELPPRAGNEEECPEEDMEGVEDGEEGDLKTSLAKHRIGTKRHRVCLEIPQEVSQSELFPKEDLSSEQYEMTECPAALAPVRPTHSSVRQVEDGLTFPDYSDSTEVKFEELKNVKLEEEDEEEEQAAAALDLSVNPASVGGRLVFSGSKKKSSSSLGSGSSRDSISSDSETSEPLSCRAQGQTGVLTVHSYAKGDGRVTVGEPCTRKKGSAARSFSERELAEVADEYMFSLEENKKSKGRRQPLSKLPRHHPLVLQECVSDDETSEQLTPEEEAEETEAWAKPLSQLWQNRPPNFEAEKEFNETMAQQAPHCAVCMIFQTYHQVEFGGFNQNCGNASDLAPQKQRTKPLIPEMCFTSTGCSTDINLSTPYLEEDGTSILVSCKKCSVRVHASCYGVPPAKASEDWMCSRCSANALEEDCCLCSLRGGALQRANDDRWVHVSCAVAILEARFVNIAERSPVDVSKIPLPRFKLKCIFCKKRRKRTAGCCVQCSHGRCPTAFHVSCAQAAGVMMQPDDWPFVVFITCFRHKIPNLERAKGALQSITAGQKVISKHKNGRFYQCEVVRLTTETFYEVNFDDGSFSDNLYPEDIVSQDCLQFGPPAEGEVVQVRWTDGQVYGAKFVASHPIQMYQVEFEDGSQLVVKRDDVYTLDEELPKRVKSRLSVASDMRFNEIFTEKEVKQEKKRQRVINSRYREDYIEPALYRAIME
measuredMetric: IC50 (µM)
Numbers only, in µM.

Query: IC50; subject: CN(C)C/C=C/C(=O)Nc1cccc(C(OCCN2CCCCC2)c2cc3nccc(C(=O)O)c3[nH]2)c1 (configuration not stated)
5.3

---

Provide the reported pIC50 of each item.
assayedTarget: Lysine-specific demethylase 5A (Homo sapiens, UniProt P29375)
Sequence (P29375 whole entry, the tested form may be a part): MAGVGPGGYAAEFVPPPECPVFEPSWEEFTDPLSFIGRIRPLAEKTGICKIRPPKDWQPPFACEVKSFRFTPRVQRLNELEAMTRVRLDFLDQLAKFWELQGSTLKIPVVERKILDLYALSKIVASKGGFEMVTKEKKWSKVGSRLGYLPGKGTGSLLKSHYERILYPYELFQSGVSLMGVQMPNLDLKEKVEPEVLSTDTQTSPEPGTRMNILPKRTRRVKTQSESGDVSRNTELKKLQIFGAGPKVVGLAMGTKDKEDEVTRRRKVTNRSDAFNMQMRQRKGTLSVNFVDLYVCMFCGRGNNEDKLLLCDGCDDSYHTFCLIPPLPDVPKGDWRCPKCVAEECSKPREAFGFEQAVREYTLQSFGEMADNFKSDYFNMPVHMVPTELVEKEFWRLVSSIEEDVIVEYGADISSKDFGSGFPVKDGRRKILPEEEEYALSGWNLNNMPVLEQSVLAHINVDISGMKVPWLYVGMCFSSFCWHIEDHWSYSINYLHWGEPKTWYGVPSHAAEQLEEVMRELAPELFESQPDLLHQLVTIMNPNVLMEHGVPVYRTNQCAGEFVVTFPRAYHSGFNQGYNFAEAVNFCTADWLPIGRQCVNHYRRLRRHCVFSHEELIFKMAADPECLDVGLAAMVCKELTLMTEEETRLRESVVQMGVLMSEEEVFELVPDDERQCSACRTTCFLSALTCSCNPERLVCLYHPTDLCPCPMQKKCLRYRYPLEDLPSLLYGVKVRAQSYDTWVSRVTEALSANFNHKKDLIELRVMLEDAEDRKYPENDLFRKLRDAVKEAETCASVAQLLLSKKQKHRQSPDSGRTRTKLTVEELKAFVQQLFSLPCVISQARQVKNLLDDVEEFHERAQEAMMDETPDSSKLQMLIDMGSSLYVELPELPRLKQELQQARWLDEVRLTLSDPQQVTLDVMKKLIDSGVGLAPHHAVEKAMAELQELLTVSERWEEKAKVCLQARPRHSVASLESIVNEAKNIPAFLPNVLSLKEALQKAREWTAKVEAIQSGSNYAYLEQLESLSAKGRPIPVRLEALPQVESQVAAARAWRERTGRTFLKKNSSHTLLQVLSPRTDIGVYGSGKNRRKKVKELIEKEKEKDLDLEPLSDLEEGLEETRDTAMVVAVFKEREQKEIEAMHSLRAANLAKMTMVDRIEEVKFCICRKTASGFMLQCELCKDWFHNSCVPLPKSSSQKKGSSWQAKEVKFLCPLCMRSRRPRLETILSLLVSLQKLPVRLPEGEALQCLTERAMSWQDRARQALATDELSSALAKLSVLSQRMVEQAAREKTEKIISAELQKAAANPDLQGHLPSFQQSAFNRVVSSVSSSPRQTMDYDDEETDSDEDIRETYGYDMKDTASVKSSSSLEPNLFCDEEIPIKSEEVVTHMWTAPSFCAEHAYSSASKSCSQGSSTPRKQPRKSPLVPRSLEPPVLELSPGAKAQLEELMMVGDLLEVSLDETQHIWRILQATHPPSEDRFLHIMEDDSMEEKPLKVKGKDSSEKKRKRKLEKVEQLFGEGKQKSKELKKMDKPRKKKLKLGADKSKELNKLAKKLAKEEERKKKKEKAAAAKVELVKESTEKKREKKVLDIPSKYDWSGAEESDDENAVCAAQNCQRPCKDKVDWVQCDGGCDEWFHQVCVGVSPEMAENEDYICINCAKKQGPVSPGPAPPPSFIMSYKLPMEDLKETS
procedureDetails: Inhibition of N-terminal his6-tagged human KDM5A (1 to 797 residues) expressed in sf9 insect cells incubated for 20 mins by Alphascreen assay
One number for each entry, as −log10 of the molar value.

Solved entries:
| smilesInput | measuredMetric | observedMeasurement |
| --- | --- | --- |
| O=C(O)c1ccnc(NCc2cccc(F)c2)c1 | pIC50 | 7.00 |
| O=C(O)c1ccnc(C(=O)O)c1 | pIC50 | 5.31 |

Query: pIC50; subject: `Cc1cnc2c(c1)c(Nc1cnccc1C(=O)O)cn2CCN1CCC(F)(F)CC1`
5.96

---

assayedTarget: Lysine-specific demethylase 5A (Homo sapiens, UniProt P29375)
procedureDetails: Inhibition of KDM5A (unknown origin ) by Cellular luciferase reporter assay
measuredMetric: IC50 (nM)
Give bare numbers, in nM.

Query: IC50; subject: `Cc1ccc(-c2cn3cc(C)ccc3n2)cc1`
190
